This collection of values is drawn from paper PMC9814550.

- system: AbnU (Parafrankia colletiae, UniProt A0A1S1R073)
- Construct: gene CC117_14200; N-terminal poly-His tag, pET28a(+), codon-optimised synthetic gene, E. coli; dimer
- Sequence (A0A1S1R073 entry or part of it): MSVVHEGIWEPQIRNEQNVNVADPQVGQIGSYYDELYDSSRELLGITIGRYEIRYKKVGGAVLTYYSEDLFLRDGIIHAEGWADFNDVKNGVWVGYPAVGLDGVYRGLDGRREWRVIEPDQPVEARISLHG
- assay_name: tryptophan fluorescence quenching (W114)
- Type: binding
assay_readout: Kd (mM)

C=CC(=O)N(C)C [compound 2, N,N-dimethylacrylamide]	6.32
